# method summary: OMEGA-3: plasma pharmacokinetics (sparse sampling and Week 4 intensive sub-study)
# Type: in vivo, human (Japanese patients)
# experimental conditions: human, in vivo, plasma, Week 4, intensive sampling; Cohort 2 (n=2), second value listed; read-out: AUC24h, individual value

compound | AUC(0-t), ng·h/mL
CC(C)OC(=O)[C@H](C)N[P@](=O)(OC[C@@]1(F)O[C@@H](n2ccc(=O)[nH]c2=O)[C@](C)(O)[C@@H]1O)Oc1ccccc1 [adafosbuvir] | 3030

* * *

# method summary: OMEGA-3: plasma pharmacokinetics (sparse sampling and Week 4 intensive sub-study)
# Format: in vivo, human (Japanese patients)
# experimental conditions: human, in vivo, Cmax, mean (SD)
property: Cmax (ng/mL)

chem smiles | unit info | recorded measurement
COc1ccc2c(O[C@@H]3C[C@H]4C(=O)N[C@]5(C(=O)NS(=O)(=O)C6CC6)C[C@H]5/C=C\CCCCN(C)C(=O)[C@@H]4C3)cc(-c3nc(C(C)C)cs3)nc2c1C | ng/mL | 2200

* * *

# method summary: OMEGA-3: plasma pharmacokinetics (sparse sampling and Week 4 intensive sub-study)
# Assay type: in vivo, human (Japanese patients)
# experimental conditions: human, in vivo, plasma, Week 4, intensive sampling; Cohort 2 (n=2), first value listed; read-out: Cmax, individual value

compound | Cmax, ng/mL
CC(C)OC(=O)[C@H](C)N[P@](=O)(OC[C@@]1(F)O[C@@H](n2ccc(=O)[nH]c2=O)[C@](C)(O)[C@@H]1O)Oc1ccccc1 [adafosbuvir] | 964

* * *

# method summary: OMEGA-3: plasma pharmacokinetics (sparse sampling and Week 4 intensive sub-study)
# Assay type: in vivo, human (Japanese patients)
# experimental conditions: human, in vivo, plasma, Week 4, intensive sampling; JNJ-4178 dosing; Cohort 1: no cirrhosis (n=8); read-out: Cmax, mean (SD)
property: Cmax (ng/mL)

chem smiles | recorded measurement
CC(C)OC(=O)[C@H](C)N[P@](=O)(OC[C@@]1(F)O[C@@H](n2ccc(=O)[nH]c2=O)[C@](C)(O)[C@@H]1O)Oc1ccccc1 | 903

* * *

# method summary: OMEGA-3: plasma pharmacokinetics (sparse sampling and Week 4 intensive sub-study)
# Type: in vivo, human (Japanese patients)
# experimental conditions: human, in vivo, AUC24h, mean (SD)

chem smiles | AUC(0-t)
COc1ccc2c(O[C@@H]3C[C@H]4C(=O)N[C@]5(C(=O)NS(=O)(=O)C6CC6)C[C@H]5/C=C\CCCCN(C)C(=O)[C@@H]4C3)cc(-c3nc(C(C)C)cs3)nc2c1C | 26900 ng·h/mL
